Molecular target: Glycogen synthase kinase-3 alpha (Homo sapiens);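 further: values are mean inhibition of GSK3A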
Settings: at 0.1 µM
reported_metric: inhibition (%)
Expressed in %, but write only the number.

In: # lookup: inhibition of CC1=C(C(=O)Nc2ccc3[nH]ncc3c2)C(c2ccc(F)cc2)NC(=O)N1 (stereo not given)
Out: -0.66

In: # lookup: inhibition of CC(C)=Cc1cccc2c1/C(=N/Nc1ccc(S(N)(=O)=O)cc1)C(=O)N2
Out: 13.8

In: # lookup: inhibition of CS(=O)(=O)CCN(CC#N)Cc1ccc(-c2ccc3ncnc(Nc4ccc(OCc5cccc(F)c5)c(Cl)c4)c3c2)o1
Out: -1.48

In: # lookup: inhibition of Cc1cccc(-c2n[nH]cc2-c2ccc3ncccc3n2)n1
Out: 0.39

In: # lookup: inhibition of COc1cc(C)c(NC(=O)CN(C)C)cc1Nc1nc(Nc2cccc(F)c2C(N)=O)c2cc[nH]c2n1
Out: -0.24
